Target: T1, cyno CD33 extracellular domain (Cynomolgus/Rhesus (cyno))
T1 construct: soluble monomeric ECD; also called cyno CD33 ECD
Experiment: SPR, Fab captured, 37C;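 also: surface plasmon resonance with Fabs captured on anti-Fab surface, soluble monomeric CD33 as analyte at several concentrations, double-referenced 1:1 model fit, KD as koff/kon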
Overview of recorded pKd for various binders
Scale: pKd equals -log10([C]), with [C] in mol/L.

Solved cases below.
INSERT INTO measurements (binder, measured_endpoint, measured) VALUES
  ('ADI-10177 Fab (Fab, V domains shown, Fab fragment; also called Ab2) VH: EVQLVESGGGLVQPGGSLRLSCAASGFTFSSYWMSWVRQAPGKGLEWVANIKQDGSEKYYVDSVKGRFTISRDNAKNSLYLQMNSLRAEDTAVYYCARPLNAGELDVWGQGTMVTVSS VL: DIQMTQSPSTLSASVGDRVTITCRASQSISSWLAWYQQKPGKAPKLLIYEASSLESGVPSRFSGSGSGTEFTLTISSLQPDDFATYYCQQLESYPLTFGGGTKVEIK', 'pKd', 7.67),
  ('ADI-11807 Fab (Fab, V domains shown, Fab fragment; also called Ab5; I07) VH: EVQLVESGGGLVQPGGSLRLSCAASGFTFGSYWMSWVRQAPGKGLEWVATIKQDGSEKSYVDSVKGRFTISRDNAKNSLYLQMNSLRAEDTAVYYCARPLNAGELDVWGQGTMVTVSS VL: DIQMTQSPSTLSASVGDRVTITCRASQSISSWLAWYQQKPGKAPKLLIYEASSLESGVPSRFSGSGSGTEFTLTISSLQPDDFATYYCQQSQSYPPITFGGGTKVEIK', 'pKd', 9.82),
  ('ADI-11830 Fab (Fab, V domains shown, Fab fragment; also called Ab9) VH: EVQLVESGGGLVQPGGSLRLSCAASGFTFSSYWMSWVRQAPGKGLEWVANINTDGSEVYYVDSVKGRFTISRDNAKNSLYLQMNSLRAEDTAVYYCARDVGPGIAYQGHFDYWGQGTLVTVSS VL: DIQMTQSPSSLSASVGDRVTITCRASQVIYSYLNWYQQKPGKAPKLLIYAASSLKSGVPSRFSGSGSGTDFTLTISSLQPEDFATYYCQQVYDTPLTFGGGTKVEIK', 'pKd', 7.56);

# input for lookup
What the record says about ADI-11835 Fab (Fab, V domains shown, Fab fragment; also called Ab10; I35) VH: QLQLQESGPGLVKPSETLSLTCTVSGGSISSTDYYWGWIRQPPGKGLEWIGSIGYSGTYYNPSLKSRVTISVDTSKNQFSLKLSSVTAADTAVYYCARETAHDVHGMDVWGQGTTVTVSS VL: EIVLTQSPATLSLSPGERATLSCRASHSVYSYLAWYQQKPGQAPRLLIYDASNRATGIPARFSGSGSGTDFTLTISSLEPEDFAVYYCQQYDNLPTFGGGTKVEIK : pKd is 8.16
